- system_tested: Man9-V3 glycopeptide
- experiment_description: biolayer interferometry, biotinylated Man9-V3 on streptavidin sensors, antibody in solution, global fit to the bivalent avidity model
Attribute: koff
Give the number; s⁻¹ is assumed, so skip it.

Known koff results, listed for orientation:
DH270.5 (antibody, V domains shown) VH: QVQLVQSGAEVKNPGASVKVSCAPSGYTFTDFYIHWVRLAPGQGLEWLGWMNPKTGRTNQGQNFQGRVIMTRDTSIGTAYMELRSLTSDDTAVYYCVTGAWISDYYDSSYYPNFDHWGQGTLVTVSS VL: LPVLTQPASVSGSPGQSITISCTGTIYDVGKFDLVSWYQHHPGKAPKYLIYEVKKWPSGVSHRFSGSKSGNTASLTISGLQVEDEADYYCCSFGGSAAVVCGGGTKVTVL; 0.00091
DH270.2 (antibody, V domains shown) VH: QVQLVQSGAEMKKPGASVRVSCKASGYTFTDYYIHWVRQAPGQGPEWMGWINPSTGRTNSPQKFQGRVIMTRDTSISTAYMDLNRLTSDDTAMYYCTTGGWIGLYSDTSGYPNFDYWGQGTLVTVSS VL: QSALTQPASVSGSPGQSITISCTGTNYDVGSYNLVSWYQQHPGKVPKYIIYEVNKRPSGVSNRFSGSKSGNTASLTISGLQAEDEADYYCCSYAGSSIIFFGGGTKLTVI; 0.0081

# lookup: koff of DH270.1 (antibody, V domains shown) VH: QVQLVQSGAEMKKPGASVKVSCKASGYTFTDYYIHWVRQAPGQGLEWMGWINPNTGRTNYAQKFQGRVIMTRDTSISTAYMELSRLTSDDTAVYYCATGGWIGLYYDSSGYPNFDYWGQGTLVTVSS VL: QSALTQPASVSGSPGQSITISCTGTSYDVGSYNLVSWYQQHPGKAPKYMIYEVNKRPSGVSNRFSGSKSGNTASLTISGLQAEDEADYYCCSYAGSSTVIFGGGTKLTVL
0.00051
